// z-score lookup, one value per entry
- protocol.summary: viability profiling in MM1S myeloma cells – cell-based, resazurin fluorescence, basal, 24 h, PK04 Diversity Set, profiling panel (AID 1174);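 further: MM1S multiple myeloma cell line; test concentration not given here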
- setup.conditions: higher = more signal, called active from +8 up or from −8 down
Returns: the value as a bare number; no unit string appended.

Solved cases below.
Exercise: Please report the recorded z-score for C=CCN1C(=O)[C@]2(O[C@H](CCO)[C@@H]([Si](C)(C)c3ccc(OC)cc3)[C@@H]2C)c2cc(N(C=O)c3ccccc3)ccc21 .
Key: -8.61

Exercise: Please report the recorded z-score for O=C1OCCC=C[C@H]2OC34C=CCN(Cn5nnc6ccccc65)C(=O)[C@H]3N(CCO)C(=O)[C@@H]4C12 (some centres not stated) .
Key: 0.542

Exercise: Please report the recorded z-score for COC(=O)c1c(CC[C@@H](CO)NC(=O)N[C@@H](Cc2ccccc2)Cn2cc(-c3ccccn3)nn2)oc(C(=O)N2CCOCC2)c1C(=O)OC .
Key: 0.475

Exercise: Please report the recorded z-score for [N-]=[N+]=NCc1ccccc1[C@@H]1OC(c2ccc(OCCCO)cc2)=N[C@]1(CCS(=O)(=O)c1ccccc1)C(=O)N1CCCCC1 .
Key: -0.814

Exercise: Please report the recorded z-score for CCOC(=O)C1=C[C@@H](C(C)C)N(S(=O)(=O)c2ccc(C)cc2)[C@H]1c1ccccc1F .
Key: -0.328

***
Exercise: Please report the recorded z-score for NCCCCCNC(=O)[C@H]1C[C@H]2C(=O)N[C@@H](Cc3ccccc3)C(=O)N2[C@H]1c1cccc(OCCO)c1 .
Key: 1.04

Exercise: Please report the recorded z-score for COc1ccc([Si](C)(C)[C@H]2[C@H](CCn3cc([C@H](O)c4ccccc4)nn3)O[C@@]3(C(=O)N(C)c4ccccc43)[C@@H]2C)cc1 .
Key: -0.722
